Every entry's value here was drawn from paper PMC12703733.

Type: cell-based, human
experimentalParameters: Cell viability (%)
Bridge positions count the residues as written; N and C are the ends. Square brackets hold non-standard residues; d marks the D form. Peptide text beside a SMILES is read from it.
observationType: viability at 3.12 µM (%)
Please give a number only; it is taken to be in %.

query: // viability at 3.12 µM lookup, key: CC[C@H](C)[C@H](NC(=O)[C@H](CCCNC(=N)N)NC(=O)[C@H]1CCC(=O)NCCCC[C@H](NC(=O)[C@H](Cc2ccccc2)NC(=O)[C@H](Cc2c[nH]c3ccccc23)NC(=O)[C@@H]2CCCN2C(=O)[C@@H](NC(=O)[C@@H](N)Cc2ccccc2)C(C)C)C(=O)N[C@@H](CCCCN)C(=O)N[C@@H](Cc2ccccc2)C(=O)N[C@H](CC(C)C)C(=O)N1)C(=O)N[C@@H](CC(C)C)C(N)=O [Peptide 2, FVPWF[KKFle]RIL] (H-FVPWFKKF[dL][dE]RIL-NH2; lactam 6-10)
result: 102
